The reported measurements were obtained from ChEMBL document CHEMBL5579901.

test: Cmax in Sprague-Dawley rat at 50 mg/kg, po measured upto 24 hrs by LC/MS-MS analysis
Type: ADME, organism-based
condition_notes: in vivo
property: Cmax (ng/mL)
// units = ng/mL; emit number, no label

Lookup: Quick one: Cmax for `COc1ccc(-c2cc(C)nc3nc(SCc4ccc(Br)cc4)nn23)c(OC)c1` ?
Found: 168

---

tested_system: Cyclin-dependent kinases regulatory subunit 1/S-phase kinase-associated protein 2 (Homo sapiens)
test: Inhibition of GST-tagged SKP2 (unknown origin) binding to His6-tagged CKS1 (unknown origin) preincubated with SKP2 for 10 mins followed by CKS1 addition for 20 mins and measured after by HTRF method
Format: protein assay
property: IC50 (µM)
// units = µM; emit number, no label

Example compounds with recorded IC50:
# molecule, measured_number
data = [
    ("COc1ccc(-c2cc(C)nc3nc(SCc4ccc(Br)cc4)nn23)cc1", 72.4),
    ("COc1cc(OC)c(-c2cc(C)nc3nc(SCc4ccc(F)cc4)nn23)c(OC)c1", 98.1),
    ("COc1cc(OC)c(-c2cc(C)nc3nc(SCc4ccccc4Br)nn23)c(OC)c1", 66.7),
]

Now take the following compound into account.
Lookup: Quick one: IC50 for `COc1cc(OC)c(-c2cc(C)nc3nc(SCC4CCCC4)nn23)c(OC)c1` ?
Found: 62.3

---

test: AUClast in Sprague-Dawley rat at 1 mg/kg, iv measured upto 24 hrs by LC/MS-MS analysis
Type: ADME, organism-based
condition_notes: in vivo
property: AUC(0-t) at 24 h (ng·h/mL)
// units = ng·h/mL; emit number, no label

Lookup: Quick one: AUC(0-t) at 24 h for `COc1ccc(-c2cc(C)nc3nc(SCc4ccc(Br)cc4)nn23)c(OC)c1` ?
Found: 699

---

tested_system: Cyclin-dependent kinases regulatory subunit 1/S-phase kinase-associated protein 2 (Homo sapiens, UniProt Q13309)
Sequence (P61024 whole entry): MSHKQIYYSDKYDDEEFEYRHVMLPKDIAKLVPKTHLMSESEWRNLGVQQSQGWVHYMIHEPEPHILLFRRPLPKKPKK
Sequence (Q13309 whole entry): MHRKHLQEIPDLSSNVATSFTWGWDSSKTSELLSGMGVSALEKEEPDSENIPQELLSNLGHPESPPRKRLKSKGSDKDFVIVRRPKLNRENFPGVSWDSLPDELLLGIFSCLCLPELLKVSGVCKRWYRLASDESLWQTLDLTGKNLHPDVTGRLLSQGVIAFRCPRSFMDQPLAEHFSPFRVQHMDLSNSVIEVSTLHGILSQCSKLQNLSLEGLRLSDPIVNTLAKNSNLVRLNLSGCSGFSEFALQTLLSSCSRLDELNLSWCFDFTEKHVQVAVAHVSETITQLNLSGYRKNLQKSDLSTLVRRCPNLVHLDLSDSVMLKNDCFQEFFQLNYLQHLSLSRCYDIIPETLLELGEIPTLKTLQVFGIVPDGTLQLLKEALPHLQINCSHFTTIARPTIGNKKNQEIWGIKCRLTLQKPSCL
test: Inhibition of GST-tagged SKP2 (unknown origin) binding to His6-tagged CKS1 (unknown origin) preincubated with SKP2 for 10 mins followed by CKS1 addition for 20 mins and measured after by HTRF method
Format: protein assay
Item-by-item account of IC50

Example molecules with recorded IC50:
# molecule, result
data = [
    ("COc1ccc(CSc2nc3nc(C)cc(-c4c(OC)cc(OC)cc4OC)n3n2)cc1", "> 100 µM"),
    ("C=CCSc1nc2nc(C)cc(-c3c(OC)cc(OC)cc3OC)n2n1", "> 100 µM"),
    ("COc1cc(OC)c(-c2cc(C)nc3nc(SCc4cccc5ccccc45)nn23)c(OC)c1", "> 100 µM"),
    ("COc1cc(OC)c(-c2cc(C)nc3nc(SCc4cccc(Cl)c4Cl)nn23)c(OC)c1", "> 100 µM"),
    ("Cc1cc(-c2ccc(C(=O)O)cc2)n2nc(SCc3ccc(Br)cc3)nc2n1", "> 100 µM"),
]

Lookup: Quick one: IC50 for `COC(=O)c1cccc(Nc2cc(C)nc3nc(SCc4ccc(Br)cc4)nn23)c1` ?
Found: > 100 µM

Lookup: Would you kindly repeat that for `Cc1cc(-c2ccc(-c3ccccc3)cc2)n2nc(SCc3ccc(Br)cc3)nc2n1` ?
Found: 10.5 µM

---

tested_system: Cyclin-dependent kinases regulatory subunit 1/S-phase kinase-associated protein 2 (Homo sapiens) (UniProt P61024+Q13309)
test: Inhibition of GST-tagged SKP2 (unknown origin) binding to His6-tagged CKS1 (unknown origin) at 50 uM preincubated with SKP2 for 10 mins followed by CKS1 addition for 20 mins and measured after by HTRF method relative to control
Format: protein assay
condition_notes: time 30.0 min
Item-by-item account of inhibition
// units = %; emit number, no label

# molecule, property, units, measured_number
records = [
    ("Cc1cc(-c2ccc(C(=O)O)cc2)n2nc(SCc3ccc(Br)cc3)nc2n1", "inhibition", "%", 20.1),
    ("COc1cc(OC)c(-c2cc(C)nc3nc(SCc4ccc(C)cc4)nn23)c(OC)c1", "inhibition", "%", 11.5),
]

Lookup: Quick one: inhibition for `Cc1cc(-c2ccc(-c3ccccc3)cc2)n2nc(SCc3ccc(Br)cc3)nc2n1` ?
Found: 66.2

Lookup: Would you kindly repeat that for `COc1cc(OC)c(-c2cc(C)nc3nc(SCc4cccc(Cl)c4)nn23)c(OC)c1` ?
Found: 15.9

Lookup: Would you kindly repeat that for `Cc1cc(Br)n2nc(SCc3ccc(Br)cc3)nc2n1` ?
Found: 47

Lookup: Would you kindly repeat that for `COC(=O)c1ccc(Nc2cc(C)nc3nc(SCc4ccc(Br)cc4)nn23)cc1` ?
Found: 12.4

Lookup: Would you kindly repeat that for `COc1cc(OC)c(-c2cc(C)nc3nc(SCc4cccc(Br)c4)nn23)c(OC)c1` ?
Found: 42.5

Lookup: Would you kindly repeat that for `COc1cc(OC)c(-c2cc(C)nc3nc(SCc4ccncc4)nn23)c(OC)c1` ?
Found: 10

Lookup: Would you kindly repeat that for `COc1cccc(-c2cc(C)nc3nc(SCc4ccc(Br)cc4)nn23)c1` ?
Found: 58.7

Lookup: Would you kindly repeat that for `COc1ccc(-c2cc(C)nc3nc(SCc4ccc(Br)cc4)nn23)cc1` ?
Found: 34.6

Lookup: Would you kindly repeat that for `COc1ccccc1-c1cc(C)nc2nc(SCc3ccc(Br)cc3)nn12` ?
Found: 27.2

Lookup: Would you kindly repeat that for `CCSc1nc2nc(C)cc(-c3c(OC)cc(OC)cc3OC)n2n1` ?
Found: 3.73

Lookup: Would you kindly repeat that for `Cc1cc(-c2ccccc2)n2nc(SCc3ccc(Br)cc3)nc2n1` ?
Found: 55.3

Lookup: Would you kindly repeat that for `COc1cc(OC)c(-c2cc(C)nc3nc(SCc4cnc(Cl)s4)nn23)c(OC)c1` ?
Found: 31.5

Lookup: Would you kindly repeat that for `COc1cc(OC)c(-c2cc(C)nc3nc(SCC4CCCC4)nn23)c(OC)c1` ?
Found: 28

Lookup: Would you kindly repeat that for `COc1ccc(-c2cc(C)nc3nc(SCc4ccc(Br)cc4)nn23)c(OC)c1` ?
Found: 73.7

Lookup: Would you kindly repeat that for `Cc1cc(-c2ccc3c(c2)OCCO3)n2nc(SCc3ccc(Br)cc3)nc2n1` ?
Found: 37.4
